- Tested on: NCI-H596
- TEST_NAME: relative viability (nuclei count vs DMSO), 5 days (fraction); higher = more cells survive
- MEASUREMENT_SETUP: first compound 1 µM
Assign relative viability to each entry below.
Answers are plain numbers.

# count of solved cases: 2
CCN(CC)CCCCNc1ncc2cc(-c3cc(OC)cc(OC)c3)c(NC(=O)NC(C)(C)C)nc2n1 + CCNC(=O)c1noc(-c2cc(C(C)C)c(O)cc2O)c1-c1ccc(CN2CCOCC2)cc1 [Luminespib] (partner 0.01 µM) = 0.621
CCN(CC)CCCCNc1ncc2cc(-c3cc(OC)cc(OC)c3)c(NC(=O)NC(C)(C)C)nc2n1 + Nc1ncn([C@H]2C[C@H](O)[C@@H](CO)O2)c(=O)n1 [Decitabine] (partner 2 µM) = 0.893

Let us examine a further case.
*Q* Field request: relative viability | item: CCN(CC)CCCCNc1ncc2cc(-c3cc(OC)cc(OC)c3)c(NC(=O)NC(C)(C)C)nc2n1 + CS(=O)(=O)N1CCN(Cc2cc3nc(-c4cccc5[nH]ncc45)nc(N4CCOCC4)c3s2)CC1 [Pictilisib] (partner 1 µM)
*A* 0.35

---

- Test system: HCC-366
- TEST_NAME: relative viability (nuclei count vs DMSO), 5 days (fraction); higher = more cells survive
- MEASUREMENT_SETUP: first compound 20 µM
Assign relative viability to each entry below.
One number for each entry.

COCC1(CO)C(=O)C2CCN1CC2 (configuration not stated) [PRIMA-1MET] + CC1(C)CCC(c2ccc(Cl)cc2)=C(CN2CCN(c3ccc(C(=O)NS(=O)(=O)c4ccc(N[C@H](CCN5CCOCC5)CSc5ccccc5)c(S(=O)(=O)C(F)(F)F)c4)cc3)CC2)C1 [Navitoclax] (partner 0.5 µM) = 0.024
COCC1(CO)C(=O)C2CCN1CC2 (configuration not stated) [PRIMA-1MET] + CC(=O)c1c(C)c2cnc(Nc3ccc(N4CCNCC4)cn3)nc2n(C2CCCC2)c1=O [Palbociclib] (partner 0.5 µM) = 0.0167
COCC1(CO)C(=O)C2CCN1CC2 (configuration not stated) [PRIMA-1MET] + CS(=O)(=O)CCNCc1ccc(-c2ccc3ncnc(Nc4ccc(OCc5cccc(F)c5)c(Cl)c4)c3c2)o1 [Lapatinib] (partner 2 µM) = 0.016
COCC1(CO)C(=O)C2CCN1CC2 (configuration not stated) [PRIMA-1MET] + CC(C)C[C@H](NC(=O)[C@H](Cc1ccccc1)NC(=O)c1cnccn1)B(O)O [Bortezomib] (partner 0.002 µM) = 0.0138
COCC1(CO)C(=O)C2CCN1CC2 (configuration not stated) [PRIMA-1MET] + Nc1nc2[nH]cc(CCc3ccc(C(=O)N[C@@H](CCC(=O)O)C(=O)O)cc3)c2c(=O)[nH]1 [Pemetrexed] (partner 0.2 µM) = 0.0889
COCC1(CO)C(=O)C2CCN1CC2 (configuration not stated) [PRIMA-1MET] + COc1cc2c(Oc3ccc(NC(=O)C4(C(=O)Nc5ccc(F)cc5)CC4)cc3F)ccnc2cc1OCCCN1CCOCC1 [Foretinib] (partner 0.25 µM) = 0.207

*Q* Field request: relative viability | item: COCC1(CO)C(=O)C2CCN1CC2 (configuration not stated) [PRIMA-1MET] + Nc1ncn([C@H]2C[C@H](O)[C@@H](CO)O2)c(=O)n1 [Decitabine] (partner 2 µM)
*A* 0.0554

---

- System: NCI-H441
- TEST_NAME: relative viability (nuclei count vs DMSO), 5 days (fraction); higher = more cells survive
- MEASUREMENT_SETUP: first compound 0.01 µM
Assign relative viability to each entry below.
Answers are plain numbers.

CCN(CC)CCCCNc1ncc2cc(-c3cc(OC)cc(OC)c3)c(NC(=O)NC(C)(C)C)nc2n1 + COc1cc2c(Oc3ccc(NC(=O)C4(C(=O)Nc5ccc(F)cc5)CC4)cc3F)ccnc2cc1OCCCN1CCOCC1 [Foretinib] (partner 0.25 µM) = 1.02

Let us examine a further case.
*Q* Field request: relative viability | item: CCN(CC)CCCCNc1ncc2cc(-c3cc(OC)cc(OC)c3)c(NC(=O)NC(C)(C)C)nc2n1 + Nc1nc2[nH]cc(CCc3ccc(C(=O)N[C@@H](CCC(=O)O)C(=O)O)cc3)c2c(=O)[nH]1 [Pemetrexed] (partner 0.2 µM)
*A* 0.257

---

- Tested on: NCI-H2347
- TEST_NAME: relative viability (nuclei count vs DMSO), 5 days (fraction); higher = more cells survive
- MEASUREMENT_SETUP: first compound 2.53 µM
Assign relative viability to each entry below.

COc1nc(C)cnc1NS(=O)(=O)c1cccnc1-c1ccc(-c2nnco2)cc1 [Zibotentan] + CC(=O)Nc1cccc(-n2c(=O)n(C3CC3)c(=O)c3c(Nc4ccc(I)cc4F)n(C)c(=O)c(C)c32)c1 [Trametinib] (partner 0.02 µM) = 0.287
COc1nc(C)cnc1NS(=O)(=O)c1cccnc1-c1ccc(-c2nnco2)cc1 [Zibotentan] + Nc1ncn([C@H]2C[C@H](O)[C@@H](CO)O2)c(=O)n1 [Decitabine] (partner 2 µM) = 0.604
COc1nc(C)cnc1NS(=O)(=O)c1cccnc1-c1ccc(-c2nnco2)cc1 [Zibotentan] + Nc1nc2[nH]cc(CCc3ccc(C(=O)N[C@@H](CCC(=O)O)C(=O)O)cc3)c2c(=O)[nH]1 [Pemetrexed] (partner 0.2 µM) = 0.471

Let us examine a further case.
*Q* Field request: relative viability | item: COc1nc(C)cnc1NS(=O)(=O)c1cccnc1-c1ccc(-c2nnco2)cc1 [Zibotentan] + COc1cccc2cc(-c3nc([C@H]4CC[C@H](C(=O)O)CC4)n4ncnc(N)c34)[nH]c12 [OSI-027] (partner 0.5 µM)
*A* 0.259

---

Assign relative viability to each entry below.
- Tested on: HOP-62
- TEST_NAME: relative viability (nuclei count vs DMSO), 5 days (fraction); higher = more cells survive
- MEASUREMENT_SETUP: first compound 0.01 µM
Numbers only.

# count of solved cases: 5
CCN(CC)CCCCNc1ncc2cc(-c3cc(OC)cc(OC)c3)c(NC(=O)NC(C)(C)C)nc2n1 + Cc1cc(Nc2cc(N3CCN(C)CC3)nc(Sc3ccc(NC(=O)C4CC4)cc3)n2)n[nH]1 [Tozasertib] (partner 0.1 µM) = 0.473
CCN(CC)CCCCNc1ncc2cc(-c3cc(OC)cc(OC)c3)c(NC(=O)NC(C)(C)C)nc2n1 + CC(=O)Nc1cccc(-n2c(=O)n(C3CC3)c(=O)c3c(Nc4ccc(I)cc4F)n(C)c(=O)c(C)c32)c1 [Trametinib] (partner 0.02 µM) = 0.452
CCN(CC)CCCCNc1ncc2cc(-c3cc(OC)cc(OC)c3)c(NC(=O)NC(C)(C)C)nc2n1 + CS(=O)(=O)N1CCN(Cc2cc3nc(-c4cccc5[nH]ncc45)nc(N4CCOCC4)c3s2)CC1 [Pictilisib] (partner 1 µM) = 0.732
CCN(CC)CCCCNc1ncc2cc(-c3cc(OC)cc(OC)c3)c(NC(=O)NC(C)(C)C)nc2n1 + CS(=O)(=O)CCNCc1ccc(-c2ccc3ncnc(Nc4ccc(OCc5cccc(F)c5)c(Cl)c4)c3c2)o1 [Lapatinib] (partner 2 µM) = 1.01
CCN(CC)CCCCNc1ncc2cc(-c3cc(OC)cc(OC)c3)c(NC(=O)NC(C)(C)C)nc2n1 + O=C(c1cc(Cc2n[nH]c(=O)c3ccccc23)ccc1F)N1CCN(C(=O)C2CC2)CC1 [Olaparib] (partner 8 µM) = 0.608

For each listed entry, give its relative viability.
1. O=c1cc(N2CCOCC2)oc2c(-c3cccc4c3sc3ccccc34)cccc12 + N=C(N)NC(=N)NCCc1ccccc1 [Phenformin] (partner 250 µM)
2. O=c1cc(N2CCOCC2)oc2c(-c3cccc4c3sc3ccccc34)cccc12 + CCNC(=O)c1noc(-c2cc(C(C)C)c(O)cc2O)c1-c1ccc(CN2CCOCC2)cc1 [Luminespib] (partner 0.01 µM)

*A*
1: 0.555; 2: 1.05

*Q* Field request: relative viability | item: O=c1cc(N2CCOCC2)oc2c(-c3cccc4c3sc3ccccc34)cccc12 + CC(=O)c1c(C)c2cnc(Nc3ccc(N4CCNCC4)cn3)nc2n(C2CCCC2)c1=O [Palbociclib] (partner 0.5 µM)
*A* 0.452

---

- Test system: NCI-H647
- TEST_NAME: relative viability (nuclei count vs DMSO), 5 days (fraction); higher = more cells survive
- MEASUREMENT_SETUP: first compound 0.3162 µM
Assign relative viability to each entry below.
Answers are plain numbers.

# count of solved cases: 5
CCN(CC)CCCCNc1ncc2cc(-c3cc(OC)cc(OC)c3)c(NC(=O)NC(C)(C)C)nc2n1 + Nc1nc2[nH]cc(CCc3ccc(C(=O)N[C@@H](CCC(=O)O)C(=O)O)cc3)c2c(=O)[nH]1 [Pemetrexed] (partner 0.2 µM) = 0.161
CCN(CC)CCCCNc1ncc2cc(-c3cc(OC)cc(OC)c3)c(NC(=O)NC(C)(C)C)nc2n1 + CC1(C)CCC(c2ccc(Cl)cc2)=C(CN2CCN(c3ccc(C(=O)NS(=O)(=O)c4ccc(N[C@H](CCN5CCOCC5)CSc5ccccc5)c(S(=O)(=O)C(F)(F)F)c4)cc3)CC2)C1 [Navitoclax] (partner 0.5 µM) = 1.21
CCN(CC)CCCCNc1ncc2cc(-c3cc(OC)cc(OC)c3)c(NC(=O)NC(C)(C)C)nc2n1 + COc1cc2c(Oc3ccc(NC(=O)C4(C(=O)Nc5ccc(F)cc5)CC4)cc3F)ccnc2cc1OCCCN1CCOCC1 [Foretinib] (partner 0.25 µM) = 1.55
CCN(CC)CCCCNc1ncc2cc(-c3cc(OC)cc(OC)c3)c(NC(=O)NC(C)(C)C)nc2n1 + O=C(c1cc(Cc2n[nH]c(=O)c3ccccc23)ccc1F)N1CCN(C(=O)C2CC2)CC1 [Olaparib] (partner 8 µM) = 0.563
O=c1cc(N2CCOCC2)oc2c(-c3cccc4c3sc3ccccc34)cccc12 + COc1cccc2cc(-c3nc([C@H]4CC[C@H](C(=O)O)CC4)n4ncnc(N)c34)[nH]c12 [OSI-027] (partner 0.5 µM) = 0.747

Let us examine a further case.
*Q* Field request: relative viability | item: O=c1cc(N2CCOCC2)oc2c(-c3cccc4c3sc3ccccc34)cccc12 + Nc1ncn([C@H]2C[C@H](O)[C@@H](CO)O2)c(=O)n1 [Decitabine] (partner 2 µM)
*A* 0.419

All values here come from the supplement of paper PMC10307832.
